Experiment: Half life in human liver microsomes
Assay type: ADME, microsome
EXPERIMENTAL ENDPOINT: half-life (min)
The answer is to be given in min; state only the numeric part.

// known answers, use as guide
>>> reading("CCCNC(=O)C1CCN(C(=O)c2cc3sccc3n2Cc2ccc(Cl)cc2)CC1")
10.3
>>> reading("CCCNC(=O)C1CCN(C(=O)c2cc3ccsc3n2Cc2ccc(OC)cc2)CC1")
4.08
>>> reading("CCCNC(=O)[C@@H]1C[C@H]2CCC[C@@H](C1)[C@@H]2NC(=O)c1cc2sc(Br)cc2n1Cc1ccc(OC)cc1")
45.1

Lab note: measured half-life of `[2H]C([2H])(c1ccc(OC)cc1)n1c(C(=O)N2CCC(C(=O)NCCC)CC2)cc2sc(Br)cc21` was 3.53

Entry under test: `CCCNC(=O)C1CCN(C(=O)c2cc3sc(-c4ccccc4)cc3n2Cc2ccc(OC)cc2)CC1` . Its half-life was 44.2
